- TESTED_TARGET: Prp8 intein (Cryptococcus gattii)
- Sequence (E6R027 entry or part of it): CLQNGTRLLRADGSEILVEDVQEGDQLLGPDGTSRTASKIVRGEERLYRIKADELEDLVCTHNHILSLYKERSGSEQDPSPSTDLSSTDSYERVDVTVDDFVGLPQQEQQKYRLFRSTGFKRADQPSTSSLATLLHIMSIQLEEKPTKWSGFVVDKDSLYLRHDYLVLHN
- ASSAY_COMMENT: Split Renilla luciferase RLuc-Prp8 intein splicing assay
- Format: biochemical
- RECORDED_CONDITIONS: split Renilla luciferase RLuc-Prp8 intein splicing
For each entry below, report its IC50 value.

Given O=C(Nc1ccc(C(F)(F)F)nc1)c1ncsc1S(=O)(=O)c1ccc(Cl)cc1 , respond with its IC50.
37.1 µM

Supply recorded IC50 for O=C(Nc1ccc(C(F)(F)F)cc1)c1nnsc1Sc1ccc(Cl)cc1 here.
21.5 µM

Item O=C(Nc1cc(F)cc(C(F)(F)F)c1)c1ncsc1S(=O)(=O)c1ccc(Cl)cc1 : provide IC50
20.2 µM

Please look at this compound and report its IC50: O=C(NCc1ccc(F)cc1)c1nnsc1Sc1ccc(Cl)cc1
5.5 µM

Report IC50, nothing else, for this compound: O=C(Nc1ccc(Cl)cc1Cl)c1ncsc1S(=O)(=O)c1ccc(Cl)cc1
11.7 µM
